Assignment: determine reported protein stability index for the given variants.
B1: ZNF449 (parent)
chain: HTGERPYECTVCKKRFTRRSHLIG

variants of: B1; assay: protein stability index of a GFP-peptide fusion (GPS, HEK-293T) (PSI 1-6); higher = more stable; details: c terminus: a fixed tail appended;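 further: lentivirally expressed fusions sorted by FACS into six bins by GFP to DsRed ratio, PSI derived from sequencing read proportions per bin multiplied by bin number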
Reply briefly: the number, and no unit.

Input line: Could you share which protein stability index value was measured for H21N ?
Output line: 2.39

Input line: Could you share which protein stability index value was measured for K14Q ?
Output line: 1.75

Input line: Could you share which protein stability index value was measured for G3C ?
Output line: 3.04

Input line: Could you share which protein stability index value was measured for H1L ?
Output line: 1.79

Input line: Could you share which protein stability index value was measured for H1E ?
Output line: 2.6

Input line: Could you share which protein stability index value was measured for T17I ?
Output line: 2.3

Input line: Could you share which protein stability index value was measured for I23D ?
Output line: 2.8

Input line: Could you share which protein stability index value was measured for V11N ?
Output line: 2.8

Input line: Could you share which protein stability index value was measured for E4I ?
Output line: 1.66

Input line: Could you share which protein stability index value was measured for S20K ?
Output line: 2.26

Input line: Could you share which protein stability index value was measured for R15C ?
Output line: 2.23

Input line: Could you share which protein stability index value was measured for E4N ?
Output line: 2.15

Input line: Could you share which protein stability index value was measured for T17K ?
Output line: 2.52

Input line: Could you share which protein stability index value was measured for C9R ?
Output line: 3.99

Input line: Could you share which protein stability index value was measured for F16D ?
Output line: 3

Input line: Could you share which protein stability index value was measured for R15M ?
Output line: 2.51

Input line: Could you share which protein stability index value was measured for T2N ?
Output line: 2.13

Input line: Could you share which protein stability index value was measured for K14H ?
Output line: 2.58

Input line: Could you share which protein stability index value was measured for F16Y ?
Output line: 1.99

Input line: Could you share which protein stability index value was measured for I23C ?
Output line: 3.61

Input line: Could you share which protein stability index value was measured for Y7R ?
Output line: 2.12

Input line: Could you share which protein stability index value was measured for K13W ?
Output line: 2.62

Input line: Could you share which protein stability index value was measured for G3V ?
Output line: 1.82

Input line: Could you share which protein stability index value was measured for P6Q ?
Output line: 3.29

Input line: Could you share which protein stability index value was measured for H21D ?
Output line: 2.27

Input line: Could you share which protein stability index value was measured for R5K ?
Output line: 1.99

Input line: Could you share which protein stability index value was measured for R19C ?
Output line: 4.07

Input line: Could you share which protein stability index value was measured for E8R ?
Output line: 2.22

Input line: Could you share which protein stability index value was measured for T2V ?
Output line: 1.97

Input line: Could you share which protein stability index value was measured for K14W ?
Output line: 1.49

Input line: Could you share which protein stability index value was measured for G3H ?
Output line: 3.28

Input line: Could you share which protein stability index value was measured for R15E ?
Output line: 2.04

Input line: Could you share which protein stability index value was measured for R5Q ?
Output line: 2.23

Input line: Could you share which protein stability index value was measured for F16I ?
Output line: 1.71

Input line: Could you share which protein stability index value was measured for G3E ?
Output line: 2.26

Input line: Could you share which protein stability index value was measured for C12V ?
Output line: 2.76

Input line: Could you share which protein stability index value was measured for I23G ?
Output line: 1.81

Input line: Could you share which protein stability index value was measured for H21I ?
Output line: 1.56

Input line: Could you share which protein stability index value was measured for G24W ?
Output line: 2.53

Input line: Could you share which protein stability index value was measured for R18N ?
Output line: 1.62

Input line: Could you share which protein stability index value was measured for R18T ?
Output line: 1.97

Input line: Could you share which protein stability index value was measured for F16S ?
Output line: 2.51

Input line: Could you share which protein stability index value was measured for E4V ?
Output line: 2.02

Input line: Could you share which protein stability index value was measured for H1P ?
Output line: 2.59

Input line: Could you share which protein stability index value was measured for K13N ?
Output line: 1.78

Input line: Could you share which protein stability index value was measured for Y7L ?
Output line: 3.39
